Biological target: Yap3 (UniProt P38749)
Sequence: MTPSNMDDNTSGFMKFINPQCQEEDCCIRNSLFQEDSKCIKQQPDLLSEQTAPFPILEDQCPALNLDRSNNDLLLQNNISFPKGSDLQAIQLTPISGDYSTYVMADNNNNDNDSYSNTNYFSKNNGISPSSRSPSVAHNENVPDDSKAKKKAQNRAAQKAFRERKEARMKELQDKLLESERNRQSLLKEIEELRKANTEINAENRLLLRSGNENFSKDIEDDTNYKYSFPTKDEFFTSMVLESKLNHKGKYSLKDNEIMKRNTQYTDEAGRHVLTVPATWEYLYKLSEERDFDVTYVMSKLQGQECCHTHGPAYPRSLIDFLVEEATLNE
Experiment: PBM E-score (8-mer binding enrichment) (E-score (-0.5 to 0.5)); higher = stronger / more preferred TF binding
Settings: protein concentration: 100 nM; construct: GST-full length
Over roughly 33,000 sequences, “E-score (-0.5 to 0.5)” has its median near -0.0034; the highest 2% begin near 0.25. This is one part of a sample in which the highest values are shown more often than they occur.
As shown below, each of these sequences has a reported PBM E-score value.
Reply briefly: the number, and no unit.

[[record]]
seq = "GCTTACTA"
value_reported = 0.237

[[record]]
seq = "AATTACCA"
value_reported = 0.256

[[record]]
seq = "CAAGCAAA"
value_reported = 0.00556


The reported PBM E-score of the sequence `GATTACCA` was 0.153

What the record says about `GAACCCGA` : PBM E-score is -0.121

Value of PBM E-score reported for the sequence `TAACCCGA` is -0.0757

###

Biological target: Yap3 (UniProt P38749)
Sequence: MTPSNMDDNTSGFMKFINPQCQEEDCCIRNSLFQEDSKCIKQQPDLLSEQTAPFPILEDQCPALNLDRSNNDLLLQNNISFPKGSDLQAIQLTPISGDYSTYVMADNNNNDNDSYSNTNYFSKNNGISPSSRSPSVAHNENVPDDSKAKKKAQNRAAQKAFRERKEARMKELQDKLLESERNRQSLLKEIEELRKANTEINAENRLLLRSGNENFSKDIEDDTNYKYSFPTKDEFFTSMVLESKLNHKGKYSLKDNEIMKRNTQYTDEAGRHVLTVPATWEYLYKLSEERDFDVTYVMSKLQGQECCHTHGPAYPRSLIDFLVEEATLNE
Assay: PBM E-score (8-mer binding enrichment) (E-score (-0.5 to 0.5)); higher = stronger / more preferred TF binding
Conditions: protein concentration: 100 nM; construct: GST-full length
Whole data set: some 33,000 sequences, median “E-score (-0.5 to 0.5)” near -0.0034, cut for the highest 2% near 0.25. The sample holds the highest values, similar sequences and a random draw of the others, so the mix is not that of the screen.
Item-by-item account of PBM E-score
Just the number, please.

Example results:
[[record]]
seq = "GTCTAGCA"
measured_on = "Yap3 (UniProt P38749)"
value_reported = 0.0493

[[record]]
seq = "CGAACAAA"
measured_on = "Yap3 (UniProt P38749)"
value_reported = 0.303

[[record]]
seq = "AGAACTGC"
measured_on = "Yap3 (UniProt P38749)"
value_reported = -0.131

[[record]]
seq = "ATACGGAA"
measured_on = "Yap3 (UniProt P38749)"
value_reported = 0.185

[[record]]
seq = "AAACGGAC"
measured_on = "Yap3 (UniProt P38749)"
value_reported = -0.155

[[record]]
seq = "CCAGTTAA"
measured_on = "Yap3 (UniProt P38749)"
value_reported = 0.143

[[record]]
seq = "ACGCTCAC"
measured_on = "Yap3 (UniProt P38749)"
value_reported = -0.0296

[[record]]
seq = "AAACGGGA"
measured_on = "Yap3 (UniProt P38749)"
value_reported = 0.12


Lab note: measured PBM E-score of `AGTGGAAC` was -0.0961

PBM E-score measured on `AACAGAAA` = 0.157

Record `GAACGGTA` . Reported PBM E-score: 0.083

Looking up `AAACGGAA` , I found its PBM E-score recorded as 0.263

Notebook: `CGAACAAG` , PBM E-score read as 0.0425

Looking up `AATGTTGC` , I found its PBM E-score recorded as 0.0681

# sequence `TATAGAAA` ; its PBM E-score = 0.0802

`GGAACAAC` yielded PBM E-score of 0.157

###

Molecular target: Yap3 (UniProt P38749)
Sequence: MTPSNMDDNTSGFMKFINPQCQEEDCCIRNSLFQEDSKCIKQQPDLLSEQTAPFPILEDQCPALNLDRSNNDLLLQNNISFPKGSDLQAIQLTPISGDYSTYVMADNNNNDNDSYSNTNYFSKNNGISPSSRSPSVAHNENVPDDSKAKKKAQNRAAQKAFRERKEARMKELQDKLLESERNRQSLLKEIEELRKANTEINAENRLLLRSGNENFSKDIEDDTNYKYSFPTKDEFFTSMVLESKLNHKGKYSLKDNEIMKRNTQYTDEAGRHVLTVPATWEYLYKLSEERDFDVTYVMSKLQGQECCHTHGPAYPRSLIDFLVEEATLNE
Experiment: PBM E-score (8-mer binding enrichment) (E-score (-0.5 to 0.5)); higher = stronger / more preferred TF binding
Conditions: protein concentration: 100 nM; construct: GST-full length
Over roughly 33,000 sequences, “E-score (-0.5 to 0.5)” has its median near -0.0034; the highest 2% begin near 0.25. For the sample, the highest values were picked, then their nearest neighbours and some sequences at random.
Returns one of 1 or 0; 1 when PBM E-score is >= 0.02.

query: Assess whether reported PBM E-score for `AAGCGGAC` sits at 0.02 or higher.
result: 0

query: Tell me whether PBM E-score is at least 0.02 here: `ACGCTTAT`
result: 0

query: Check if PBM E-score >= 0.02 (inclusive). Item: `TAATAGTA`
result: 1

query: Hello, I need to know if `GAATATTA` has measured PBM E-score not below 0.02. Thanks!
result: 1

query: I'd appreciate it if you could say whether `AAATATTA` has PBM E-score at least equal to 0.02.
result: 1

query: Is reported PBM E-score greater than or equal to 0.02 here: `CTGTATGC`
result: 0

query: I'd appreciate it if you could say whether `GGAACGAC` has PBM E-score at least equal to 0.02.
result: 0

query: Does the reported PBM E-score for `ACTAATAT` fall at or above the 0.02 mark?
result: 1

query: Does the reported PBM E-score for `AAAGGTCT` fall at or above the 0.02 mark?
result: 0

query: Please tell me: is the sequence `AAGTAAAC` at or over 0.02 in terms of PBM E-score?
result: 1

query: Is it the case that `CACGGATA` has PBM E-score reaching or exceeding 0.02?
result: 1

query: Please tell me: is the sequence `AATAATCA` at or over 0.02 in terms of PBM E-score?
result: 1

query: Is it the case that `CCAGTCTC` has PBM E-score reaching or exceeding 0.02?
result: 0

query: Quick check: does `CATAATCC` have PBM E-score greater than or equal to 0.02?
result: 1

query: Could you please find out whether `ATTTCATA` has PBM E-score that meets 0.02 or exceeds it?
result: 1

query: Is PBM E-score for `GGATACGA` at or above 0.02?
result: 1

query: Can `ATGACAAG` be said to have PBM E-score at or above 0.02?
result: 0

###

Target: Yap3 (UniProt P38749)
Sequence: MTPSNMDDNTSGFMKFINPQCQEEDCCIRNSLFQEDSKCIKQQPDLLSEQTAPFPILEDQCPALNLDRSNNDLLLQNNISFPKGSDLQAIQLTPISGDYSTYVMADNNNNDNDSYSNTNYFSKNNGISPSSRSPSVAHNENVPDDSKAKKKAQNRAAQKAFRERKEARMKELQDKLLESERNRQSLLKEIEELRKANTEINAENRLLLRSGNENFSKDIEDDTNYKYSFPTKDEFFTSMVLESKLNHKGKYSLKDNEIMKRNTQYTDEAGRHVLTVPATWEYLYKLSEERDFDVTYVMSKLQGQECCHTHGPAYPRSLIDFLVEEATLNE
Assay: PBM E-score (8-mer binding enrichment) (E-score (-0.5 to 0.5)); higher = stronger / more preferred TF binding
Conditions: protein concentration: 100 nM; construct: GST-full length
In all, about 33,000 sequences were measured (“E-score (-0.5 to 0.5)”: median about -0.0034, highest 2% from about 0.25 on). Only a selection was taken, and the highest values are over-represented in it overall.
// reported PBM E-score per item
Output: the number by itself.

[[record]]
seq = "ACTTATAG"
measure_name = "PBM E-score"
value_reported = -0.0355

[[record]]
seq = "TAAATGAA"
measure_name = "PBM E-score"
value_reported = 0.117

[[record]]
seq = "ATCAATTC"
measure_name = "PBM E-score"
value_reported = -0.0493


Per the records, this sequence ( `GTATTATA` ) has PBM E-score equal to 0.329

The recorded PBM E-score for entry `CTCCTATA` equals -0.191

Lab note: `TTATGAAA` gave PBM E-score of 0.204

Please fill in: PBM E-score reported for `ATCAATTA` = 0.318

// PBM E-score lookup, sequence = `CAGCCTAA` , result: -0.12

According to the records, this sequence `CCTCGCTC` displays PBM E-score of 0.0543
